Subject Of Test: UniProtKB P62942
Run Description: small-molecule binding to FKBP12 – biophysical, NMR detection (AID 608)
Condition Summary: purified FKBP12
Active and inactive are the calls of the source. The rule behind the calls is not given here.
Measure Name: Kd

Worked examples, 5 molecules total:
Nc1ncnc(NC2CCS(=O)(=O)C2)c1[N+](=O)[O-] (centres undefined) :: > 4 mM (inactive)
COc1ccc(N/C(N)=N\c2nc(C)cc(C)n2)cc1 :: > 4 mM (inactive)
Cc1cccc(C(C)C)c1NC(=O)c1cccnc1 :: > 4 mM (inactive)
Nc1ncccc1OCc1ccccc1 :: > 4 mM (inactive)
C[N+](C)(C)CC(=O)[O-] :: > 4 mM (inactive)

Exercise: Data request, read-out Kd, for O=C(O)C1CN(Cc2ccccc2)CCO1 (centres undefined)
Solution: > 4 mM (inactive)

---

Subject Of Test: Peptidyl-prolyl cis-trans isomerase FKBP1A (Homo sapiens) (UniProt P62942)
Sequence (P62942 whole entry, looked up): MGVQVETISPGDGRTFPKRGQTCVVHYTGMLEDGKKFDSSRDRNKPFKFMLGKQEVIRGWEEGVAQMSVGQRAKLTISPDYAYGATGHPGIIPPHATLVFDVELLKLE
Run Description: small-molecule binding to FKBP12 – biophysical, NMR detection (AID 608)
Condition Summary: purified FKBP12
Active and inactive are the calls of the source. The rule behind the calls is not given here.
Measure Name: Kd

Cc1ccc(C(=O)N2CCC(C(N)=O)CC2)cc1C :: > 4 mM (inactive)
O=C1Cc2ccccc2N1c1ccccc1 :: > 4 mM (inactive)
NC(CC(=O)O)C(=O)Nc1ccc(Cl)cc1 (stereo not given) :: > 4 mM (inactive)
O=c1[nH]cc(Nc2ccccc2)c(=O)[nH]1 :: > 4 mM (inactive)
Cn1cc(Cl)c(C(=O)NC2CCCCCC2)n1 :: > 4 mM (inactive)

Exercise: Data request, read-out Kd, for `O=C(O)CN1CCN(C2CCCC2)CC1`
Solution: > 4 mM (inactive)

Exercise: Data request, read-out Kd, for `COc1ccccc1/C=C\C(=O)O`
Solution: > 4 mM (inactive)

Exercise: Data request, read-out Kd, for `C/C=C(/C)C(=O)O[C@H]1CC[C@@]2(C)[C@@H]3CC[C@H]4[C@]5(O)C[C@H](O)[C@@]6(O)[C@@H](CN7C[C@@H](C)CC[C@H]7[C@@]6(C)O)[C@]5(O)C[C@@]42OC13O`
Solution: > 4 mM (inactive)

Exercise: Data request, read-out Kd, for NC1=NC(=O)C(CC(=O)Nc2ccccc2F)S1 (stereo not given)
Solution: > 4 mM (inactive)

Exercise: Data request, read-out Kd, for `COc1ccc(-c2cc(=O)c3c(O)cc(O[C@H]4O[C@H](CO[C@@H]5O[C@@H](C)[C@H](O)[C@@H](O)[C@H]5O)[C@@H](O)[C@H](O)[C@H]4O)cc3o2)cc1`
Solution: > 4 mM (inactive)

Exercise: Data request, read-out Kd, for COc1ccccc1NC(=O)C1CCC(=O)N1 (stereo not given)
Solution: > 4 mM (inactive)

Exercise: Data request, read-out Kd, for `Cc1nc2ccc(NC(=O)N3CCSCC3)cc2s1`
Solution: > 4 mM (inactive)

Exercise: Data request, read-out Kd, for `CCN(CC)S(=O)(=O)c1cccc2nsnc12`
Solution: > 4 mM (inactive)

Exercise: Data request, read-out Kd, for `OCC1CCN(c2ncccn2)CC1`
Solution: > 4 mM (inactive)

Exercise: Data request, read-out Kd, for `Cc1nc(-c2ccc(C(=O)N3CCOCC3)cc2)cs1`
Solution: > 4 mM (inactive)

Exercise: Data request, read-out Kd, for `Cc1oc(-c2ccccc2)cc1C(N)=O`
Solution: > 4 mM (inactive)

Exercise: Data request, read-out Kd, for `Cc1nn(C)c(C)c1C(=O)O`
Solution: > 4 mM (inactive)

---

Subject Of Test: UniProt P62942
Run Description: small-molecule binding to FKBP12 – biophysical, NMR detection (AID 608)
Condition Summary: purified FKBP12
The source made the active and inactive calls. No rule for the calls is given here.
Measure Name: Kd

Worked examples, 4 compounds total:
O=C1C[C@@H](c2ccccc2)Oc2cc(O)cc(O)c21 :: > 4 mM (inactive)
COc1ccc2c(c1)OC[C@@H](Cc1ccc(OC)c(OC)c1)[C@H]2O :: > 4 mM (inactive)
Nc1nncn1C(=O)c1c(Cl)cccc1Cl :: > 4 mM (inactive)
COc1cc(OC)cc(-c2nc(N)n[nH]2)c1 :: > 4 mM (inactive)

Exercise: Data request, read-out Kd, for `Cc1ncoc1C(=O)Nc1ncc([N+](=O)[O-])s1`
Solution: > 4 mM (inactive)

Exercise: Data request, read-out Kd, for `NC1CCN(Cc2ccccc2)CC1`
Solution: > 4 mM (inactive)

Exercise: Data request, read-out Kd, for O=C1CC(N2CCC(O)CC2)C(=O)N1c1ccc(F)cc1 (configuration not stated)
Solution: > 4 mM (inactive)

Exercise: Data request, read-out Kd, for CCC(/C=C/[C@@H](C)[C@H]1CCC2C3CC=C4C[C@@H](O)CC[C@]4(C)C3CC[C@@]21C)C(C)C (some centres not stated)
Solution: > 4 mM (inactive)

---

Subject Of Test: Peptidyl-prolyl cis-trans isomerase FKBP1A (Homo sapiens)
Run Description: small-molecule binding to FKBP12 – biophysical, NMR detection (AID 608)
Condition Summary: purified FKBP12
Activity calls are given as the source filed them. How the calls were made is not given here.
// allowed return values: active, inactive

Solved cases (3 shown):
Cc1occc1C(=O)Nc1nnc(C2CCCCC2)s1 :: inactive
COC(=O)C1=C(C)N(Cc2ccco2)C(=O)C1 :: inactive
CC(C)C1COc2cc3oc(=O)ccc3cc2O1 (stereo not drawn) :: inactive

Exercise: Please indicate how the test categorized `C=CCc1ccc2c(c1)OCO2` .
Solution: inactive

Exercise: Please indicate how the test categorized `O=C(O)c1cc2ccccc2o1` .
Solution: inactive

Exercise: Please indicate how the test categorized `Cn1cnc2c(=O)[nH]cc([N+](=O)[O-])c21` .
Solution: inactive

Exercise: Please indicate how the test categorized `Cc1nc(SCC#N)c2c3c(sc2n1)CCC3` .
Solution: inactive

Exercise: Please indicate how the test categorized `O=C(NCc1cccs1)c1ccc2c(c1)OCCO2` .
Solution: inactive

Exercise: Please indicate how the test categorized `O=C1NC(=S)NC(=O)C1=Cc1ccccc1O` .
Solution: inactive

Exercise: Please indicate how the test categorized `Cc1cc(C(=O)Nn2cnnc2)cs1` .
Solution: inactive

---

Subject Of Test: UniProt P62942
Run Description: small-molecule binding to FKBP12 – biophysical, NMR detection (AID 608)
Condition Summary: purified FKBP12
Calls of active or inactive are those of the source. No rule for the calls is given here.
// allowed return values: Yes (active), No (inactive)

Solved cases (5 shown):
Cc1c(/C=N\n2cnnc2)c2ccccc2n1C :: No
O=C(NCc1n[nH]c(=O)c2ccccc12)C1CC1 :: No
Cc1nc2sccn2c1C(=O)O :: No
Cc1nc(-c2cccc(-c3noc(C)n3)c2)no1 :: No
O=c1n(-c2ccccc2)c(=O)n2n1CCCC2 :: No

Exercise: Please indicate how the test categorized `Cc1c(C(=O)O)cnn1-c1ccccc1` .
Solution: No

Exercise: Please indicate how the test categorized `CCn1nccc1C(=O)Nc1ccc(Cl)cc1Cl` .
Solution: No

Exercise: Please indicate how the test categorized CC1SC(=NC(=O)c2ccco2)NC1=O (stereo not drawn) .
Solution: No

Exercise: Please indicate how the test categorized `O=c1c[n+]([O-])c2ccccc2n1OCc1ccccc1` .
Solution: No

Exercise: Please indicate how the test categorized `Cc1nc(-c2ccccc2)ncc1C(=O)O` .
Solution: No

---

Subject Of Test: Peptidyl-prolyl cis-trans isomerase FKBP1A (Homo sapiens)
Run Description: small-molecule binding to FKBP12 – biophysical, NMR detection (AID 608)
Condition Summary: purified FKBP12
The source made the active and inactive calls. The rule behind the calls is not given here.
// allowed return values: yes (1) (active), no (0) (inactive)

Solved cases (10 shown):
CC(=O)Oc1ccc2c(c1OC(C)=O)OCC1(O)Cc3c(cc(OC(C)=O)c(OC(C)=O)c3OC(C)=O)C21 (stereo not drawn) :: no (0)
c1ccc(CCNc2ncnc3nc[nH]c23)cc1 :: no (0)
COc1ccc(-c2cn[nH]c2N)c(OC)c1 :: no (0)
CC1CN(C(=O)CSc2ccccc2)CC(C)O1 (stereo not drawn) :: no (0)
O=C(c1ncc[nH]1)c1ccccc1C(=O)N1CCOCC1 :: no (0)
O=C(C(Sc1ccccc1)c1ccccc1)N1CCOCC1 (stereo not drawn) :: yes (1)
Cc1ccc(-c2cc(C(=O)N3CCCC3)no2)cc1 :: no (0)
Cc1ccc(-c2nn3c(C)nnc3s2)cc1N :: no (0)
CS(=O)(=O)NC1CCN(Cc2ccccc2)CC1 :: no (0)
CCCCCCCCCCCCCCC(C(=O)O)C(O)(CC(=O)OC)C(=O)O (stereo not drawn) :: no (0)

Exercise: Please indicate how the test categorized `CCOC(=O)c1[nH]c(C)cc1C` .
Solution: no (0)

Exercise: Please indicate how the test categorized COC(=O)C1CSCC1=O (stereo not drawn) .
Solution: no (0)

Exercise: Please indicate how the test categorized `NC(=O)COc1ccccc1O` .
Solution: no (0)

Exercise: Please indicate how the test categorized `COc1ccc(NC(=O)/C=N/O)cc1` .
Solution: no (0)

Exercise: Please indicate how the test categorized `Cc1cc(NC(=O)CSc2nncn2C)no1` .
Solution: no (0)

Exercise: Please indicate how the test categorized CC1(C)C(=O)C=C[C@@]2(C)C1C=C[C@]1(C)C2CC[C@@]2(C)[C@H](c3ccoc3)OC(=O)C3OC321 (stereo partly drawn) .
Solution: no (0)

Exercise: Please indicate how the test categorized `NCc1c[nH]c2ccccc12` .
Solution: no (0)

Exercise: Please indicate how the test categorized `CCOc1ccc(-c2c(=O)n(O)c3ccccc3[n+]2[O-])cc1` .
Solution: no (0)

Exercise: Please indicate how the test categorized `Cc1cc(C)c(C#N)c(N2CCCC2)n1` .
Solution: no (0)

Exercise: Please indicate how the test categorized `Cc1nnc(NCCCO)[nH]c1=O` .
Solution: no (0)

Exercise: Please indicate how the test categorized `NC(=O)CSc1nnnn1-c1ccccc1` .
Solution: no (0)

Exercise: Please indicate how the test categorized `O=C1CNC(=O)N1Cc1ccc(F)cc1` .
Solution: no (0)

Exercise: Please indicate how the test categorized COC1C(O)C(O)C(O)[C@@H](O)C1O (stereo partly drawn) .
Solution: no (0)

Exercise: Please indicate how the test categorized Cc1ccc(C(O)c2nccn2C)o1 (stereo not drawn) .
Solution: no (0)

Exercise: Please indicate how the test categorized Cc1cccnc1NC1=NCC(C)S1 (stereo not drawn) .
Solution: no (0)

Exercise: Please indicate how the test categorized `CC(=O)NC1=C(N(C)C)C(=O)c2ccccc2C1=O` .
Solution: no (0)

Exercise: Please indicate how the test categorized `COCc1nn2c(N)c(C#N)cnc2c1-c1ccccc1` .
Solution: no (0)

Exercise: Please indicate how the test categorized `Cc1c(N=Cc2ccc[nH]2)c(=O)n(-c2ccccc2)n1C` .
Solution: no (0)
